Target: human B1R receptor (hB1R) (Homo sapiens)
Construct: host or cells: CHO K1 cells
Sequence (P46663 whole entry): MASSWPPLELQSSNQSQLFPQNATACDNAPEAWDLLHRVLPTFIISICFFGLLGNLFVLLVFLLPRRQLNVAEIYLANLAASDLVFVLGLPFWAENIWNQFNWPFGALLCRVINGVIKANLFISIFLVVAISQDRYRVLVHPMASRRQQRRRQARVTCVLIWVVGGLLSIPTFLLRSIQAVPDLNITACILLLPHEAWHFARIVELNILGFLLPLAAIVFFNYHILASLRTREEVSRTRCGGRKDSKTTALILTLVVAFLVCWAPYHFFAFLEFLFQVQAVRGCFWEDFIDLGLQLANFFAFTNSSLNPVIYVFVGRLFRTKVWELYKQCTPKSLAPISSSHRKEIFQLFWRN
Test: FLIPR Ca2+ assay on hB1R-transfected CHO K1 cells, antagonistic action
Assay type: cell-based
Details: CHO-K1, 10 μM test substance; agonist Lys-Des-Arg9-bradykinin 0.5 nM; % of maximum achievable inhibition; read-out: hB1R [10 μM] % inhibition
Catalogue of inhibition at 10 µM readings, one per entry.
Form entry: value (%) — number only.

Record excerpt, results attached:
>>> print(df.to_string())
                                   compound         test_readout  reading
0  CN(CCCC1CCC(Cc2ccccc2)(N2CCCC2)CC1)C(=O)CC(NS(=O)(=O)c1ccc2ccccc2c1)c1ccccc1 (stereo not shown)  inhibition at 10 µM      102
1  COc1cc(C)c(S(=O)(=O)N(C)CCOCC(=O)NC2CCC(Cc3ccccc3C)(N(C)C)CC2)c(C)c1 (stereo not shown)  inhibition at 10 µM      103
2  CN(CCCC1CCC(c2ccccc2)(N2CCCC2)CC1)C(=O)CC(NS(=O)(=O)c1ccc2ccccc2c1)c1ccccc1 (stereo not shown)  inhibition at 10 µM       98
3  CN1CCN(C2(c3cccc(F)c3)CCN(C(=O)CCCC3CCCCN3S(=O)(=O)c3ccc4ccccc4c3)CC2)CC1 (stereo not shown)  inhibition at 10 µM      100
4  CN1CCN(C2(CCc3ccccc3)CCN(C(=O)CC3CCCCN3S(=O)(=O)c3cccc(C(F)(F)F)c3)CC2)CC1 (stereo not shown)  inhibition at 10 µM       90
5  COc1cc(C)c(S(=O)(=O)N2CCC(OCC(=O)NC3CCC(Cc4ccccc4C)(N(C)C)CC3)C2)c(C)c1 (stereo not shown)  inhibition at 10 µM       89

Read the next record carefully.
Returns the measured inhibition at 10 µM for the input compound. Input: COc1cc(C)c(S(=O)(=O)N2CCCC(OCC(=O)NC3CCC(c4ccccc4)(N4CCCC4)CC3)C2)c(C)c1 (stereo not shown)
89
